Overview of reported zone of inhibition at 100 µg/disc across a group of compounds:
test system: Klebsiella pneumoniae; assay: Antibacterial activity against Klebsiella pneumoniae MTCC 3384 assessed as zone of inhibition at 100 ug/well measured after 24 hrs by agar well diffusion method; format: functional; conditions: MTCC 3384, 24 h, read-out: DIZ
Could you give me the number in mm? Just the number is fine.

Name the recorded zone of inhibition at 100 µg/disc of the item "CC1(C)O[C@H]2O[C@@H]3COB(c4cccc(/N=C/c5ccc(Br)cc5O)c4)O[C@@H]3[C@H]2O1" in your answer.
12

Entry CC1(C)O[C@H]2O[C@@H]3COC(c4cccc(C=O)c4)O[C@@H]3[C@H]2O1 (stereo not given in full) needs its zone of inhibition at 100 µg/disc filled in; supply it.
0

Supply reported zone of inhibition at 100 µg/disc belonging to this compound: "Cc1ccc(/N=C/c2cccc(B(O)O)c2)cc1"
0

Note down zone of inhibition at 100 µg/disc recorded for "Cc1ccc(/N=C/c2cccc(B3OC[C@H]4O[C@@H]5OC(C)(C)O[C@@H]5[C@H]4O3)c2)cc1"
20

Return reported zone of inhibition at 100 µg/disc. Input compound: "CC1(C)O[C@H]2O[C@@H]3COB(c4cccc(N)c4)O[C@@H]3[C@H]2O1"
12

For "CC1(C)O[C@H]2O[C@@H]3COB(c4ccc(/C=N/c5ccccc5)cc4)O[C@@H]3[C@H]2O1" , write its zone of inhibition at 100 µg/disc.
21

Note down zone of inhibition at 100 µg/disc recorded for "CC(C)c1ccc(/N=C/c2cccc(B3OC[C@H]4O[C@@H]5OC(C)(C)O[C@@H]5[C@H]4O3)c2)cc1"
16

Quickly give me recorded zone of inhibition at 100 µg/disc for "CC1(C)O[C@H]2O[C@@H]3COB(c4cccc(/C=N/c5ccc(F)cc5)c4)O[C@@H]3[C@H]2O1"
16

Tell me measured zone of inhibition at 100 µg/disc for "CC1(C)O[C@H]2O[C@@H]3COB(c4ccc(/C=N/c5ccc(F)cc5)cc4)O[C@@H]3[C@H]2O1" please.
21

Note down zone of inhibition at 100 µg/disc recorded for "CC1(C)O[C@H]2O[C@@H]3COB(c4ccc(/C=N/c5ccc(Cl)cc5)cc4)O[C@@H]3[C@H]2O1"
24

Tell me measured zone of inhibition at 100 µg/disc for "CC1(C)O[C@H]2O[C@@H]3COB(c4ccc(/C=N/c5ccc(Br)cc5)cc4)O[C@@H]3[C@H]2O1" please.
17

Find the measured zone of inhibition at 100 µg/disc of "COc1ccc(/N=C/c2cccc(B3OC[C@H]4O[C@@H]5OC(C)(C)O[C@@H]5[C@H]4O3)c2)cc1" and report it.
18

State its zone of inhibition at 100 µg/disc: "Cc1ccc(/N=C/c2ccc(B3OC[C@H]4O[C@@H]5OC(C)(C)O[C@@H]5[C@H]4O3)cc2)cc1"
24

Report zone of inhibition at 100 µg/disc for "CCOc1cccc(/C=N/c2cccc(B3OC[C@H]4O[C@@H]5OC(C)(C)O[C@@H]5[C@H]4O3)c2)c1O"
12

Given the compound "CC1(C)O[C@H]2O[C@@H]3COB(c4cccc(/C=N/c5ccccc5)c4)O[C@@H]3[C@H]2O1" , write its reported zone of inhibition at 100 µg/disc.
19

---

system: Salmonella typhi; assay: Antibacterial activity against Salmonella typhi assessed as zone of inhibition at 100 ug/well measured after 24 hrs by agar well diffusion method; type: functional, Salmonella enterica subsp. enterica serovar Typhi; settings: Salmonella enterica, read-out: DIZ
READOUT_NAME: zone of inhibition at 100 µg/disc (mm)
Record the value in mm, omitting the unit from your answer.

Provide the reported zone of inhibition at 100 µg/disc (system: Salmonella typhi) for "CCOc1cccc(/C=N/c2cccc(B3OC[C@H]4O[C@@H]5OC(C)(C)O[C@@H]5[C@H]4O3)c2)c1O"
24

Report zone of inhibition at 100 µg/disc on Salmonella typhi for this entry: "CC1(C)O[C@H]2O[C@@H]3COB(c4cccc(/N=C/c5cc(Br)ccc5O)c4)O[C@@H]3[C@H]2O1"
24

Enter zone of inhibition at 100 µg/disc (test system Salmonella typhi) for "Cc1ccc(/N=C/c2cccc(B(O)O)c2)cc1"
8

Consider the molecule "CC1(C)O[C@H]2O[C@@H]3COB(c4cccc(/N=C/c5ccccc5O)c4)O[C@@H]3[C@H]2O1" tested on Salmonella typhi; state its zone of inhibition at 100 µg/disc.
22
